# System: HEK293T
# experiment.description: median enrichment of reporter reads in eGFP-reduced (low/intermediate) vs eGFP-high sorted cells (eGFP-extension fusion abundance) (ratio); higher = stronger loss of eGFP-fusion protein abundance (more destabilising extension)
Use met when the recorded median enrichment is no lower than 0.5; use not met when it is lower.

Sample answers from the record:
1. QLFLKMAIVYEICISVSLYKF [NUP133] :: met
2. EFILMKENVTKEMHEM [MYH4] :: met
3. RSCAAQSQTPAPTTYFCYTQEHFRKLSQLIFCFSSMSILSVSHFEDFFSLLYLCFSFFGFYFVVLSVIFNVPKICTCSIKNVV [HOOK3] :: met

We next turn to a different substance, shown below.
Hi, just wondering whether LEKPSSFVETVALQPWRRTCWYLKNGTFATQD [DOCK8] shows median enrichment of 0.5 or higher. met

----------
# Test system: HEK293T
# experiment.description: median enrichment of reporter reads in eGFP-reduced (low/intermediate) vs eGFP-high sorted cells (eGFP-extension fusion abundance) (ratio); higher = stronger loss of eGFP-fusion protein abundance (more destabilising extension)
Use Y when the recorded median enrichment is no lower than 1; use N when it is lower.

Sample answers from the record:
1) RSSTRDWKDHKLKWRKDPQDT [FCGR3B] :: Y
2) QALSIPM [IDH3B] :: N
3) SMKCLS [FANCI] :: N
4) EHQETLE [KLHL14] :: N

Hi, just wondering whether YAQPGPQIRSAQQRPGPSSRTTRPHHASCSQTQN [CCDC27] shows median enrichment of 1 or higher. N

Hi, just wondering whether PPPPPP [Pro06] shows median enrichment of 1 or higher. N

Hi, just wondering whether YRCEGIGETLGWLVMVSIAGHQKLDS [B4GALNT2] shows median enrichment of 1 or higher. Y

Hi, just wondering whether YLTFPAESVARGKVTIYAEMICLVPILCSTSVFQKFLINKLI [CDCA2] shows median enrichment of 1 or higher. Y

Hi, just wondering whether SCIAGLSSAASTECQAPHSAHPWALLRGPKTQEEERSACPLPPPLQYSLCAVV [SYCN] shows median enrichment of 1 or higher. Y

Hi, just wondering whether EKLVLCSG [ZDBF2] shows median enrichment of 1 or higher. Y

Hi, just wondering whether LSLTASLK [TEX35] shows median enrichment of 1 or higher. Y

Hi, just wondering whether CSFPVPSHYSPKLGKGGGTYEKNSSGFITDWE [CNOT9] shows median enrichment of 1 or higher. Y

Hi, just wondering whether SPELTAQSVDRASVRRHRERPGGSLSMDSQTAGEHLGQPPEGPLLDPRENLLALAVILE [ICOSLG] shows median enrichment of 1 or higher. Y

Hi, just wondering whether YGTDGRRGPGTPGMGGPNP [GATA2] shows median enrichment of 1 or higher. Y

Hi, just wondering whether QPSSCKAIAKQGGSLQSMPGDYVSQGGPMGMSMAQPSYTPPQMTPHPTQLRHGPPMHSYLPSHPHHPAMMMHGGPPTHPGMTM [MEIS2] shows median enrichment of 1 or higher. Y

Hi, just wondering whether QALGKKDCNQRKSIGVEEIKLTLFWLFF [GLI3] shows median enrichment of 1 or higher. Y

----------
# System: HEK293T;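 further: lentiviral eGFP-IRES-mCherry reporter pool sorted by FACS 96 h post-transduction, gated on mCherry-high cells, Illumina read counts normalized per million, median across four biological replicates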
# experiment.description: median enrichment of reporter reads in eGFP-reduced (low/intermediate) vs eGFP-high sorted cells (eGFP-extension fusion abundance) (ratio); higher = stronger loss of eGFP-fusion protein abundance (more destabilising extension)
Use Fulfilled when the recorded median enrichment is no lower than 7; use Not fulfilled when it is lower.

1. WELLFLGEGEEGKGPGSRGTRG [EPHB1] :: Not fulfilled
2. SHVGQIKRQLQK [CTSO] :: Not fulfilled
3. QRHGVLGGLMGTGACIFCWGMKLITLL [AGBL4] :: Not fulfilled
4. RDSSACPPWGPCCRPGGQSRWERHSQGQGKEGTHTHTHTHTHTHTYILLSLPKPIRQVNGQCLLGPWTHFLLGEAAS [GLP1R] :: Not fulfilled
5. LVISSVFCFLF [MS4A1] :: Fulfilled
6. YRSAVQENVMLGTPSSVVLASHASAAELAE [DEFA4] :: Not fulfilled
7. QGLEGQEVGVRSPYSACCPGCAAQLDSASQHLPPRSFLLFIPIFTPKTSLSLFTPPKPLSHAGPLKPQLPTILREHPLPSLPF [GSTM2] :: Not fulfilled
8. QQQQQQQQQ [Gln09] :: Not fulfilled

Hi, just wondering whether CPQPGY [B3GNT7] shows median enrichment of 7 or higher. Not fulfilled

Hi, just wondering whether YRNSEVQPLENNIQEGHIDYKLMSCPICNSGS [FRRS1] shows median enrichment of 7 or higher. Fulfilled
